Each recorded value in this set is attributed to paper PMC7773887.

target: AmpC BER (Escherichia coli)
Sequence (A7TUE6 20-379): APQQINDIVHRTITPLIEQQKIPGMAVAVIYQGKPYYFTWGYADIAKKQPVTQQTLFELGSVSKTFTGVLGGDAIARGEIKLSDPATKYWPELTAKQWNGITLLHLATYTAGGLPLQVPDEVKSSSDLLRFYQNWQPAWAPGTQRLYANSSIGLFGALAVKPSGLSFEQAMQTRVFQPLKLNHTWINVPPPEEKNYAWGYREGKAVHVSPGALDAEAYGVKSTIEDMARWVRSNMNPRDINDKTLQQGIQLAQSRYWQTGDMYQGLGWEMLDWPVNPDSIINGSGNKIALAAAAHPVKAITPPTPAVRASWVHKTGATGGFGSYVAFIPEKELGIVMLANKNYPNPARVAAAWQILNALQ
pKi: −log10 of the molar value.
QUANTITY_KIND: pKi

                                   compound  quantity_kind  obs_value
0  C=C1CCC[C@@H]2[C@@](C)(CCC(CCCc3ccoc3)COS(=O)(=O)O)[C@H](C)CC[C@]12C (stereo partly shown) [Hali 5, halisulfate 5]            pKi       5.23
